These entries and their values trace back to paper PMC6429183.

# Test system: ERR reporter HEK293 cells
# PROTOCOL TEXT: CellTiter-Fluor cell viability assay multiplexed with ERR reporter assay
# Type: cell-based
# REPORTED CONDITIONS: Homo sapiens, HEK293, read-out: ERR-HEK293 Follow-Up Viability EC50
PROPERTY MEASURED: pEC50
Numbers only, as −log10 of the molar value.

Query string: Return reported pEC50; argument: C=C(C)[C@H]1Cc2c(ccc3c2O[C@@H]2COc4cc(OC)c(OC)cc4[C@@H]2C3=O)O1 [Rotenone]
Result string: 6.37

###

Read-out record for ERRα with PGC-1α (PGC/ERR pathway) (Homo sapiens, UniProt P11474): PGC/ERR-HEK293 Follow-Up Efficacy
One number for each entry, in %.

Report PGC/ERR-HEK293 Follow-Up Efficacy for every entry below.
1. CO/C=C(/C(=O)OC)c1ccccc1COc1cccc(C(F)(F)F)n1
2. CC(C)(C)c1ccc(CSc2cnn(C(C)(C)C)c(=O)c2Cl)cc1
3. COC(=O)N(OC)c1ccccc1COc1ccn(-c2ccc(Cl)cc2)n1
4. CO/N=C(/C(=O)OC)c1ccccc1COc1ccccc1C

Result string:
["−43.6", "−63.1", "−42.1", "−61.1"]
